pIC50: −log10 of the molar value.
Study the reported pIC50 values for Coagulation factor XI (Homo sapiens, UniProt P03951) given below; they originate from different publications.
REPORTED ENDPOINT: pIC50

P: Cc1cc([C@H](C)n2cc(NC(=O)c3nc(-c4c(OC(F)F)ccc(Cl)c4F)cnc3CO)cn2)cnc1N1C[C@H]2C[C@H]2C1=O
Q: C[C@@H]1Cc2ccc(Cl)cc2-c2cc(=O)n([C@@H](C[C@@H]3COCCO3)C(=O)Nc3ccc(C(N)=O)cc3)cc2CO1 (single isomer, unassigned)
Problem: Please indicate which has the smaller reported pIC50: P , or Q . # answer = label of selected item
Result: P

P: COc1cn(C(C[C@@H]2CCCCO2)C(=O)Nc2ccc(C(=O)O)s2)c(=O)cc1-c1cc(Cl)ccc1OCC(F)(F)F (stereo partly shown)
Q: CON(C)C(=O)c1ccc(Br)cc1-n1cc(C(=N)N)c2ccccc21
Problem: For the two items P and Q , which reports the higher pIC50 value? // output: label of the selected item
Result: P
